molecular target: MYLK2 (human) (UniProt Q9H1R3); assay: KINOMEscan competition binding; conditions: compound 10.0 µM
Sequence (Q9H1R3 whole entry, looked up): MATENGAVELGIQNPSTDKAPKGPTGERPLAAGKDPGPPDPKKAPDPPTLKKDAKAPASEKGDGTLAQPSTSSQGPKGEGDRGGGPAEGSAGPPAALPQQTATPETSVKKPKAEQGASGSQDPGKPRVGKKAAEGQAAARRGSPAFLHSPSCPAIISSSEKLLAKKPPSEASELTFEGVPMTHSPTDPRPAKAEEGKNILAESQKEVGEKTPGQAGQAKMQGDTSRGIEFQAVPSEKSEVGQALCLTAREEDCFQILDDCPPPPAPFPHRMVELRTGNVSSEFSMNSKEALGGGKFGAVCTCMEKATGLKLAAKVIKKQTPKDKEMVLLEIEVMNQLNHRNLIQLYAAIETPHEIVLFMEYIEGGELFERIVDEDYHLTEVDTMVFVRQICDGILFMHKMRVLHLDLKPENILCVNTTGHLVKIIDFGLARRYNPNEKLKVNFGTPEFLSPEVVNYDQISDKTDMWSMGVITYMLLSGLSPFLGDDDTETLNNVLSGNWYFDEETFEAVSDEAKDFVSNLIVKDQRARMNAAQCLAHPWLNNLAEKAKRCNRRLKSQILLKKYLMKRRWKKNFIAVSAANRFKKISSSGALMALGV
Overview of recorded kinase still bound, per cent of control for various compounds
The reply should be a number in %, with the unit left off.

Reference set (2 entries):
>  <structure>
COCC(=O)NC/C=C/c1ccc2ncnc(Nc3ccc(Oc4ccc(C)nc4)c(C)c3)c2c1

>  <kinase still bound, per cent of control / %>
100

$$$$
>  <structure>
N#CCNC(=O)c1ccc(-c2ccnc(Nc3ccc(N4CCOCC4)cc3)n2)cc1

>  <kinase still bound, per cent of control / %>
23

$$$$

Consider the compound `CCN(CC)CCCCNc1ncc2cc(-c3cc(OC)cc(OC)c3)c(NC(=O)NC(C)(C)C)nc2n1` . State its measured kinase still bound, per cent of control.
100

====

target: CDK5 (human); test: KINOMEscan competition binding; details: compound 10.0 µM
parameter-measured: kinase still bound, per cent of control (%)
The reply should be a number in %, with the unit left off.

Reference set (6 entries):
>  <structure>
CS(=O)(=O)N1CCN(Cc2cc3nc(-c4cccc5[nH]ncc45)nc(N4CCOCC4)c3s2)CC1

>  <kinase still bound, per cent of control [%]>
100

$$$$
>  <structure>
COc1cc(C(=O)N2CCC(N3CCN(C)CC3)CC2)ccc1Nc1ncc2c(n1)N(C)c1ccccc1C(=O)N2C

>  <kinase still bound, per cent of control [%]>
81

$$$$
>  <structure>
CNC(=O)c1ccc(Nc2cc(Nc3ccccc3S(=O)(=O)C(C)C)c3cc[nH]c3n2)nc1

>  <kinase still bound, per cent of control [%]>
28

$$$$
>  <structure>
N#CCNC(=O)c1ccc(-c2ccnc(Nc3ccc(N4CCOCC4)cc3)n2)cc1

>  <kinase still bound, per cent of control [%]>
100

$$$$
>  <structure>
COCC(=O)NC/C=C/c1ccc2ncnc(Nc3ccc(Oc4ccc(C)nc4)c(C)c3)c2c1

>  <kinase still bound, per cent of control [%]>
100

$$$$
>  <structure>
NC(=O)Nc1cc(-c2cccc(F)c2)sc1C(=O)N[C@@H]1CCCNC1

>  <kinase still bound, per cent of control [%]>
100

$$$$

Check CDK5 (human) data and give kinase still bound, per cent of control for `COc1ccc(N(C(=O)Oc2c(C)cccc2C)c2ccnc(Nc3ccc(N4CCN(C)CC4)cc3)n2)c(OC)c1` .
98

Check CDK5 (human) data and give kinase still bound, per cent of control for `O=c1cc(N2CCOCC2)oc2c(-c3cccc4c3sc3ccccc34)cccc12` .
100

Check CDK5 (human) data and give kinase still bound, per cent of control for `CCN1CCN(C(=O)Cc2ccc(Nc3ncc(F)c(Nc4ccc(C(=O)Nc5ccccc5Cl)cc4)n3)cc2)CC1` .
79

Check CDK5 (human) data and give kinase still bound, per cent of control for `O=C1NC(=O)/C(=C/c2ccc3nccc(-c4ccncc4)c3c2)S1` .
82

Check CDK5 (human) data and give kinase still bound, per cent of control for `CNC(=O)c1cc(Oc2ccc(NC(=O)Nc3ccc(Cl)c(C(F)(F)F)c3)cc2)ccn1` .
39

Check CDK5 (human) data and give kinase still bound, per cent of control for `C=CC(=O)Nc1cc(-n2c(=O)ccc3cnc4ccc(-c5cn[nH]c5)cc4c32)ccc1C` .
84

Check CDK5 (human) data and give kinase still bound, per cent of control for `COc1cc2ncnc(-n3nc(-c4ccccn4)nc3N)c2cc1OC` .
100

Check CDK5 (human) data and give kinase still bound, per cent of control for `C=CC(=O)Nc1ccc(CN(C(=O)Nc2c(Cl)c(OC)cc(OC)c2Cl)c2cc(Nc3ccc(N4CCN(C)CC4)cc3)ncn2)cc1` .
100

====

molecular target: TNIK (human) (UniProt Q9UKE5); assay: KINOMEscan competition binding; details: compound 10.0 µM
Sequence (Q9UKE5 whole entry, looked up): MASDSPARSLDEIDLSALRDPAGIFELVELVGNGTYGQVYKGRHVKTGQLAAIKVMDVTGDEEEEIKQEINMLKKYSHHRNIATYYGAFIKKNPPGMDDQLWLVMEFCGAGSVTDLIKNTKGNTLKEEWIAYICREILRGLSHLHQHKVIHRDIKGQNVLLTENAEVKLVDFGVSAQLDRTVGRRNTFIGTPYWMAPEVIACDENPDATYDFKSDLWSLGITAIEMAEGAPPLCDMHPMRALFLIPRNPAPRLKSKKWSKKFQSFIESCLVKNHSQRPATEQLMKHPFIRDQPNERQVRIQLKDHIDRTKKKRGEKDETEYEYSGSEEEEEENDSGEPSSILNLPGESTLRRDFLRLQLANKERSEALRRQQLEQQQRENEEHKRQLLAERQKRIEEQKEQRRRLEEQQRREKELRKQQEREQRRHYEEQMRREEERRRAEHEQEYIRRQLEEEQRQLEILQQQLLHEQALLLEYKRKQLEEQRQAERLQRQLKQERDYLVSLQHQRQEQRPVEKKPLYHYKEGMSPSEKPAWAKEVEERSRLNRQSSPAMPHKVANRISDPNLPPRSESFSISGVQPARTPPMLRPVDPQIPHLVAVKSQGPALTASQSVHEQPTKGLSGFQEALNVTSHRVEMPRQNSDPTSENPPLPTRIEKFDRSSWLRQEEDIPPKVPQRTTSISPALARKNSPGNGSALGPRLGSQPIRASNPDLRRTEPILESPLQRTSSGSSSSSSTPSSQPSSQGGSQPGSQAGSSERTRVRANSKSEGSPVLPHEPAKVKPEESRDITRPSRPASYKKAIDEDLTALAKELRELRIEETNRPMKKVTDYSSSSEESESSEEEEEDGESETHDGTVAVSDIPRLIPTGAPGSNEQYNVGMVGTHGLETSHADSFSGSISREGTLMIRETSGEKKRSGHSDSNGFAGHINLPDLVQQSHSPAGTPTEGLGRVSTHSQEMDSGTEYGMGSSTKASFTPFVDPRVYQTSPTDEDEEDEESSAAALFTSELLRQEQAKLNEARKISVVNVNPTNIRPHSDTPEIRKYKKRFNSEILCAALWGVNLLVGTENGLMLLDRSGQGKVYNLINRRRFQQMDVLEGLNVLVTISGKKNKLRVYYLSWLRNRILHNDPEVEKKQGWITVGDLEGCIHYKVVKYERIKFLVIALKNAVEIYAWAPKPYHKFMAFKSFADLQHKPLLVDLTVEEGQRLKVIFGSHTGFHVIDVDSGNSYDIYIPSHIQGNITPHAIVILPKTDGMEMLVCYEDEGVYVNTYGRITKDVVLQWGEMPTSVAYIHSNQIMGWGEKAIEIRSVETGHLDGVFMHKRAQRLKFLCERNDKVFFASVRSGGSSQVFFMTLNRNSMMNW
Overview of recorded kinase still bound, per cent of control for various compounds
The reply should be a number in %, with the unit left off.

Reference set (2 entries):
>  <structure>
COc1cc2ncnc(-n3nc(-c4ccccn4)nc3N)c2cc1OC

>  <units>
%

>  <kinase still bound, per cent of control>
40

$$$$
>  <structure>
Cc1n[nH]c2ccc(-c3cncc(OC[C@@H](N)Cc4c[nH]c5ccccc45)c3)cc12

>  <units>
%

>  <kinase still bound, per cent of control>
3.2

$$$$

Okay, now this compound:
Check TNIK (human) (UniProt Q9UKE5) data and give kinase still bound, per cent of control for `COc1cc(N2CCN(C)CC2)ccc1Nc1ncc2c(n1)N(C)c1ccccc1C(=O)N2C` .
100

====

biological target: TNK1 (human) (UniProt Q13470); test: KINOMEscan competition binding; settings: compound 10.0 µM
Sequence (Q13470 whole entry, looked up): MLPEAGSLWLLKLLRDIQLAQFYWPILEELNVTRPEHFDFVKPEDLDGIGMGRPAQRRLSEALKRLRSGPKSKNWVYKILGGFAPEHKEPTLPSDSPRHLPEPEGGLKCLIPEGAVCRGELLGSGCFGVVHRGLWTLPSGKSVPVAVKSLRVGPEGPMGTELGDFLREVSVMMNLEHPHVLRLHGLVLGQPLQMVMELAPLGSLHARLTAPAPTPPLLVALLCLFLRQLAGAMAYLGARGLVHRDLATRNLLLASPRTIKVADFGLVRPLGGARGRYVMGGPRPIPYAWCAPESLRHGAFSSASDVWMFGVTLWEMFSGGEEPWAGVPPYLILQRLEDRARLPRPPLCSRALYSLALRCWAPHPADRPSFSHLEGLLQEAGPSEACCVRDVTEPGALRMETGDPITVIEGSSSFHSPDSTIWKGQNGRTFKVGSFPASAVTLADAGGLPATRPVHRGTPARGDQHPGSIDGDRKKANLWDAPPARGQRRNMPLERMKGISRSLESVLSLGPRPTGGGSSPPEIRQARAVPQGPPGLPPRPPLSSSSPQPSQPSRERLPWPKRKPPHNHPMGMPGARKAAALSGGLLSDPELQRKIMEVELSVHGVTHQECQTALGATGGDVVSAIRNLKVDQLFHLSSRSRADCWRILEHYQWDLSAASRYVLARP
parameter-measured: kinase still bound, per cent of control

Reference set (2 entries):
>  <structure>
CNC(=O)c1ccc(Nc2cc(Nc3ccccc3S(=O)(=O)C(C)C)c3cc[nH]c3n2)nc1

>  <value-observed>
4%

$$$$
>  <structure>
CS(=O)(=O)N1CCN(Cc2cc3nc(-c4cccc5[nH]ncc45)nc(N4CCOCC4)c3s2)CC1

>  <value-observed>
100%

$$$$

Check TNK1 (human) (UniProt Q13470) data and give kinase still bound, per cent of control for `C=CC(=O)Nc1ccc(CN(C(=O)Nc2c(Cl)c(OC)cc(OC)c2Cl)c2cc(Nc3ccc(N4CCN(C)CC4)cc3)ncn2)cc1` .
28%

Check TNK1 (human) (UniProt Q13470) data and give kinase still bound, per cent of control for `COc1cc2ncnc(-n3nc(-c4ccccn4)nc3N)c2cc1OC` .
11%

Check TNK1 (human) (UniProt Q13470) data and give kinase still bound, per cent of control for `COc1cc(C(=O)N2CCC(N3CCN(C)CC3)CC2)ccc1Nc1ncc2c(n1)N(C)c1ccccc1C(=O)N2C` .
2.8%

Check TNK1 (human) (UniProt Q13470) data and give kinase still bound, per cent of control for `Cc1n[nH]c2ccc(-c3cncc(OC[C@@H](N)Cc4c[nH]c5ccccc45)c3)cc12` .
100%

Check TNK1 (human) (UniProt Q13470) data and give kinase still bound, per cent of control for `CCN(CC)CCCCNc1ncc2c(n1)N(C)C(=O)N(c1c(Cl)c(OC)cc(OC)c1Cl)C2` .
100%

Check TNK1 (human) (UniProt Q13470) data and give kinase still bound, per cent of control for `CCN1CCN(C(=O)Cc2ccc(Nc3ncc(F)c(Nc4ccc(C(=O)Nc5ccccc5Cl)cc4)n3)cc2)CC1` .
1.3%

Check TNK1 (human) (UniProt Q13470) data and give kinase still bound, per cent of control for `C[C@@H](Oc1cc(-c2cnn(C3CCNCC3)c2)cnc1N)c1c(Cl)ccc(F)c1Cl` .
7.1%

Check TNK1 (human) (UniProt Q13470) data and give kinase still bound, per cent of control for `O=c1cc(N2CCOCC2)oc2c(-c3cccc4c3sc3ccccc34)cccc12` .
100%

====

Overview of recorded kinase still bound, per cent of control for various compounds
molecular target: RPS6KA5 KD2 (human); assay: KINOMEscan competition binding; conditions: compound 10.0 µM
The reply should be a number in %, with the unit left off.

Consider the compound `COCC(=O)NC/C=C/c1ccc2ncnc(Nc3ccc(Oc4ccc(C)nc4)c(C)c3)c2c1` . State its measured kinase still bound, per cent of control.
98

Consider the compound `N#CCNC(=O)c1ccc(-c2ccnc(Nc3ccc(N4CCOCC4)cc3)n2)cc1` . State its measured kinase still bound, per cent of control.
9.3

Consider the compound `C=CC(=O)Nc1cc(-n2c(=O)ccc3cnc4ccc(-c5cn[nH]c5)cc4c32)ccc1C` . State its measured kinase still bound, per cent of control.
75

Consider the compound `COc1ccc(N(C(=O)Oc2c(C)cccc2C)c2ccnc(Nc3ccc(N4CCN(C)CC4)cc3)n2)c(OC)c1` . State its measured kinase still bound, per cent of control.
93

Consider the compound `COc1cc2ncnc(-n3nc(-c4ccccn4)nc3N)c2cc1OC` . State its measured kinase still bound, per cent of control.
33

Consider the compound `Cc1n[nH]c2ccc(-c3cncc(OC[C@@H](N)Cc4c[nH]c5ccccc45)c3)cc12` . State its measured kinase still bound, per cent of control.
17

Consider the compound `COc1cc(C(=O)N2CCC(N3CCN(C)CC3)CC2)ccc1Nc1ncc2c(n1)N(C)c1ccccc1C(=O)N2C` . State its measured kinase still bound, per cent of control.
92

Consider the compound `C=CC(=O)Nc1ccc(CN(C(=O)Nc2c(Cl)c(OC)cc(OC)c2Cl)c2cc(Nc3ccc(N4CCN(C)CC4)cc3)ncn2)cc1` . State its measured kinase still bound, per cent of control.
100

Consider the compound `C[C@@H](Oc1cc(-c2cnn(C3CCNCC3)c2)cnc1N)c1c(Cl)ccc(F)c1Cl` . State its measured kinase still bound, per cent of control.
95

Consider the compound `CS(=O)(=O)N1CCN(Cc2cc3nc(-c4cccc5[nH]ncc45)nc(N4CCOCC4)c3s2)CC1` . State its measured kinase still bound, per cent of control.
100

Consider the compound `COc1cc2ncn(-c3cc(OCc4ccccc4C(F)(F)F)c(C(N)=O)s3)c2cc1OC` . State its measured kinase still bound, per cent of control.
76

Consider the compound `CNC(=O)c1ccc(Nc2cc(Nc3ccccc3S(=O)(=O)C(C)C)c3cc[nH]c3n2)nc1` . State its measured kinase still bound, per cent of control.
100

Where do the numbers come from? From the kinase profiling compilation of Christmann-Franck et al. (2016).
